targetDesc: Acetylcholinesterase (Homo sapiens)
Sequence (P22303 whole entry): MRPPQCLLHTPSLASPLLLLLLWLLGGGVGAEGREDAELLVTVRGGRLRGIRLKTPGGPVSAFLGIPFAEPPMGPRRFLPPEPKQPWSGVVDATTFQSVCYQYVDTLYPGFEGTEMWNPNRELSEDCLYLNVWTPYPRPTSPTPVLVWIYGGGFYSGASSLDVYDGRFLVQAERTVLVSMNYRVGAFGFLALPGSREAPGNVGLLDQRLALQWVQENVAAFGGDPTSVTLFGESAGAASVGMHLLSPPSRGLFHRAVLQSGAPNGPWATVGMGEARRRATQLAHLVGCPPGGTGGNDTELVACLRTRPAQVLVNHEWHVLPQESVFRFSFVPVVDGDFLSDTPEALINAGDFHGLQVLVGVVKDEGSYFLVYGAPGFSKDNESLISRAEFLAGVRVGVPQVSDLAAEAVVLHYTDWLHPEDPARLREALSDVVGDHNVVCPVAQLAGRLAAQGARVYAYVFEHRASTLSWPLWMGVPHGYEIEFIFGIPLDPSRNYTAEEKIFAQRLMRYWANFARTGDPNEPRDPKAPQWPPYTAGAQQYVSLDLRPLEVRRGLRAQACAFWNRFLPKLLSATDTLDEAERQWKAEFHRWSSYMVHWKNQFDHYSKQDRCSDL
measurementDescription: Inhibition of human AChE at 100 uM using acetylthiocholine as substrate by Ellman's method
Each entry below carries its reported inhibition.
Reply with just the number (in %).

compoundstructurestring=CO[C@H]1C=C2[C@H]3CN(Cc4cc5c(cc43)OCO5)[C@H]2C[C@@H]1O targetdesc="Acetylcholinesterase (Homo sapiens)" scaleunit=% valuemeasured=13.7
compoundstructurestring=CO[C@H]1C=C2[C@H]3CN(Cc4cc5c(cc43)OCO5)[C@H]2C[C@@H]1OC(=O)c1ccc(C)c([N+](=O)[O-])c1 targetdesc="Acetylcholinesterase (Homo sapiens)" scaleunit=% valuemeasured=30.3
compoundstructurestring=CO[C@H]1C[C@H]2C(=C[C@@H]1OC(=O)N1CCCCC1)[C@H]1CN2Cc2cc3c(cc21)OCO3 targetdesc="Acetylcholinesterase (Homo sapiens)" scaleunit=% valuemeasured=8.8
compoundstructurestring=CO[C@H]1C[C@H]2C(=C[C@@H]1OC(=O)c1ccc(C)cc1)[C@H]1CN2Cc2cc3c(cc21)OCO3 targetdesc="Acetylcholinesterase (Homo sapiens)" scaleunit=% valuemeasured=12.4
compoundstructurestring=CO[C@H]1C[C@H]2C(=C[C@@H]1OC(=O)c1cccs1)[C@H]1CN2Cc2cc3c(cc21)OCO3 targetdesc="Acetylcholinesterase (Homo sapiens)" scaleunit=% valuemeasured=29.4

Challenge: For CO[C@H]1C=C2[C@H]3CN(Cc4cc5c(cc43)OCO5)[C@H]2C[C@@H]1OC(=O)N1CCCCC1 , write its inhibition.
Response given: 10.9

Challenge: Output measured inhibition for this item: COc1ccccc1C(=O)O[C@H]1C=C2[C@H]3CN(Cc4cc5c(cc43)OCO5)[C@H]2C[C@@H]1OC
Response given: 15.6

###

targetDesc: Cholinesterase (Homo sapiens)
Sequence (P06276 whole entry): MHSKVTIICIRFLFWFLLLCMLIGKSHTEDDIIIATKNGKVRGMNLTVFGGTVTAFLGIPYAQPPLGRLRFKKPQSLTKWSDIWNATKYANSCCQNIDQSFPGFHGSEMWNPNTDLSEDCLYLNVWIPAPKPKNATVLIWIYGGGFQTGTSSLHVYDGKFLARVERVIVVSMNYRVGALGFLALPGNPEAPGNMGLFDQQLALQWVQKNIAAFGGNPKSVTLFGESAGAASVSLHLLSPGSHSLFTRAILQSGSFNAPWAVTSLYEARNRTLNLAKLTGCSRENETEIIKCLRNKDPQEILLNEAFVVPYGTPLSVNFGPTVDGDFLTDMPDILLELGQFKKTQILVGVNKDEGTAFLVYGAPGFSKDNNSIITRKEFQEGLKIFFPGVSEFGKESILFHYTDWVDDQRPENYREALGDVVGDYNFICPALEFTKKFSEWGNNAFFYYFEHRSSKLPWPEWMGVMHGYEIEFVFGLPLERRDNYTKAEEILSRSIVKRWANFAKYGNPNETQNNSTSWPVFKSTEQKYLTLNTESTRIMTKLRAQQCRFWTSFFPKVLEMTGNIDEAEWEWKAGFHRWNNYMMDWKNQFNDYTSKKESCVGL
measurementDescription: Inhibition of human BuChE at 100 uM using butyrylthiocholine chloride as substrate by Ellman's method
Class Satisfied: inhibition at least 30%. Class Not satisfied: inhibition below 30%.

compoundstructurestring=CO[C@H]1C[C@H]2C(=C[C@@H]1OCCN1CCCCC1)[C@H]1CN2Cc2cc3c(cc21)OCO3 grouplabel=Satisfied
compoundstructurestring=CO[C@H]1C[C@H]2C(=C[C@@H]1OC(=O)c1ccc([N+](=O)[O-])cc1Cl)[C@H]1CN2Cc2cc3c(cc21)OCO3 grouplabel="Not satisfied"

Challenge: Threshold query (inhibition >= 30%) on CO[C@H]1C[C@H]2C(=C[C@@H]1OC(=O)c1cccs1)[C@H]1CN2Cc2cc3c(cc21)OCO3
Response given: Satisfied

Challenge: I'd appreciate it if you could say whether CO[C@H]1C[C@H]2C(=C[C@@H]1OC(=O)c1ccc(Cl)c([N+](=O)[O-])c1)[C@H]1CN2Cc2cc3c(cc21)OCO3 has inhibition at least equal to 30%.
Response given: Not satisfied

Challenge: Record COc1ccc(C(=O)O[C@H]2C=C3[C@H]4CN(Cc5cc6c(cc54)OCO6)[C@H]3C[C@@H]2OC)cc1OC ; criterion: inhibition no lower than 30%. Met?
Response given: Not satisfied

Challenge: # check: inhibition of CO[C@H]1C[C@H]2C(=C[C@@H]1OC(=O)N1CCCCC1)[C@H]1CN2Cc2cc3c(cc21)OCO3 is greater than or equal to 30%
Response given: Satisfied

Challenge: # check: inhibition of CO[C@H]1C[C@H]2C(=C[C@@H]1OC(=O)c1ccc(C)cc1)[C@H]1CN2Cc2cc3c(cc21)OCO3 is greater than or equal to 30%
Response given: Not satisfied
